full-length human PRMT6 (Flag- and His-tagged) (Homo sapiens, UniProt Q96LA8): recorded pIC50 for assorted molecules
Sequence (Q96LA8 with tags, fused parts or gaps): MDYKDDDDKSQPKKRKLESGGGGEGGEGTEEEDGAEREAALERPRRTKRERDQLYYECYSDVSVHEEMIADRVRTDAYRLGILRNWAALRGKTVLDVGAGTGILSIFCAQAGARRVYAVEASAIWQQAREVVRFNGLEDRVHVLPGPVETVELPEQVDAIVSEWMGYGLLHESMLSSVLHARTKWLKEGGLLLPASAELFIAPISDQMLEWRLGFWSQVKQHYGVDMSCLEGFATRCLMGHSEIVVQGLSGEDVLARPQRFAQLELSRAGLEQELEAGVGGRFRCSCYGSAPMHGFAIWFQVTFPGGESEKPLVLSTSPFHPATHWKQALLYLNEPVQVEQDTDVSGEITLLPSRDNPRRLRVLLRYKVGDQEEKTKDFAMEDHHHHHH
Please note pIC50 is a logarithmic value: minus log10 of concentration in mol/L. Answer with that number alone.

Please review the following examples before continuing.
1. CNCCN(C)Cc1c[nH]nc1[C@H]1CC[C@@]2(CCCOC2)CC1 [compound 5]
7.44
2. CNCCN(C)Cc1c[nH]nc1C1CCC(C)(C)[C@H](OCC(C)C)C1 (stereo partly shown) [compound 20]
7.13
3. CCOC[C@@H]1CC(c2n[nH]cc2CN(C)CCNC)CCC1(C)C (stereo partly shown) [compound 31]
7.34
4. CN(CCN)Cc1c[nH]nc1[C@H]1CC[C@@]2(CC1)CC(C)(C)CO2 [compound 105]
7.73

Enquiry: Checklist item: pIC50 tested on full-length human PRMT6 (Flag- and His-tagged) (Homo sapiens, UniProt Q96LA8), entry CNCCN(C)Cc1c[nH]nc1[C@H]1CC[C@]2(CCCOC2)CC1 [compound 4] , value?
Return: 7.48

* * *

# MEASURED_TARGET: full-length human PRMT8 isoform 1 (Homo sapiens, UniProt Q9NR22)
# Sequence (Q9NR22 whole entry, canonical isoform): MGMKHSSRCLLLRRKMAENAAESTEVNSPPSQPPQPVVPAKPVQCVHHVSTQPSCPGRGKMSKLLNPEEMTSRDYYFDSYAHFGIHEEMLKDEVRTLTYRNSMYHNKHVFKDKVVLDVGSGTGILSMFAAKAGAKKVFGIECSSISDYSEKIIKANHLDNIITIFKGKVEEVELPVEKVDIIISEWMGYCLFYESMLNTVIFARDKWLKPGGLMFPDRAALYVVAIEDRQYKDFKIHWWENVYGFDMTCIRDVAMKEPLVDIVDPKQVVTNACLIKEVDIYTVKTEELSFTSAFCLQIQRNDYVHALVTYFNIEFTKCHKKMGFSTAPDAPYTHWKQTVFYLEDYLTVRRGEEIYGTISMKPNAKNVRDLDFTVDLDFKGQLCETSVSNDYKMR
# PROTOCOL_TEXT: PRMT8 biochemical assay (3H-SAM Flashplate, histone H4 31-45 peptide)
# RUN_PARAMETERS: 1.5 nM PRMT8, 30 min preincubation, 150 nM peptide
Labelling field: enter label 1 if recorded IC50 is less than 20 nM. Enter label 0 if it equals or exceeds that cut-off.

1) CN(CCN)Cc1c[nH]nc1[C@H]1CC[C@]2(CC1)CC(C)(C)CO2
label 0
2) CNCCN(C)Cc1c[nH]nc1[C@H]1CC[C@@]2(CCN(CCC(C)C)C2=O)CC1
label 1

Enquiry: Is it true that IC50 reported for "CNCCN(C)Cc1c[nH]nc1C1CCC(COCCC2CCOCC2)(COCCC2CCOCC2)CC1" is less than 20 nM?
Return: label 0

Enquiry: Again, but for "Cc1[nH]nc([C@H]2CC[C@]3(CC2)CC(C)(C)CO3)c1CN(C)CCN"
Return: label 0

Enquiry: Again, but for "CNCCN(C)Cc1c[nH]nc1C1=CCC(CF)(CF)CC1"
Return: label 1

Enquiry: Again, but for "CNCCN(C)Cc1c[nH]nc1[C@H]1CC[C@@]2(CC1)COC(C)(C)C2"
Return: label 0

Enquiry: Again, but for "CNCCN(C)Cc1nncn1[C@H]1CC[C@]2(CC1)CC(C)(C)CO2"
Return: label 0

Enquiry: Again, but for "CNCCN(C)Cc1cnnn1[C@H]1CC[C@@]2(CC1)CC(C)(C)CO2"
Return: label 0

* * *

Measured PRMT1 RGG ICW EC30, listed per entry.
# MEASURED_TARGET: PRMT1 (Homo sapiens)
# Construct: host or cells: RKO cells
# Sequence (Q99873 whole entry): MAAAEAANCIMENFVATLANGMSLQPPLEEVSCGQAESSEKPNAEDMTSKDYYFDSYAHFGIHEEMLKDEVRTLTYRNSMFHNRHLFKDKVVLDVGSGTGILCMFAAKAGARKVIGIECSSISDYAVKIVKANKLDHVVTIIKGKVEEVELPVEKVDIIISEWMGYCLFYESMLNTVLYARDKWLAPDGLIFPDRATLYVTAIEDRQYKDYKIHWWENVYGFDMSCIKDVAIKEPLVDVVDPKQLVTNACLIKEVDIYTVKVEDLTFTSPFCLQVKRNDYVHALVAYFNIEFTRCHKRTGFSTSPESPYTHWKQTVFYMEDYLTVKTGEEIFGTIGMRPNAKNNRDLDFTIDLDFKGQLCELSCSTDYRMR
# PROTOCOL_TEXT: RKO methylation assay, In Cell Western (ICW) for mono-methyl arginine and DNA content
# Assay type: cell-based
# RUN_PARAMETERS: RKO cells, 72 hours, mono-methyl arginine signal normalised to DRAQ5, percent activation

1) CNCCN(C)Cc1c[nH]nc1C1C[C@H](C(=O)NCCOC)C(C)(C)[C@H](C(=O)NCCOC)C1 (stereo partly drawn)
>5.0 µM

Enquiry: Looking for the measured PRMT1 RGG ICW EC30 of "CNCCN(C)Cc1c[nH]nc1C1CCC(CO)(CO)CC1" , can you help?
Return: >5.0 µM

Enquiry: Again, but for "CCOCC1(COCC)CC=C(c2n[nH]cc2CN(C)CCNC)CC1"
Return: 0.04467 µM
